- test-system: feline FcRn (FCN-F82W3, Acrobiosystems) (feline)
- experiment-summary: SPR Carterra, IgG coupled, pH 6.0
measurement-name: pKd
The scale used: pKd is minus the common logarithm of the concentration in molar units.

| binder | measurement-name | value-observed |
| --- | --- | --- |
| anti-NGF feline IgG1a, Fc variant L309V (antibody, part only; not given: anti-NGF variable domains, light chain, not shown: another chain or arm of the molecule; small tags and cut ends) Fc: PPEMLGGPSIFIFPPKPKDTLSISRTPEVTCLVVDLGPDDSDVQITWFVDNTQVYTAKTSPREEQFNSTYRVVSVLPIVHQDWLKGKEFKCKVNSKSLPSPIERTISKAKGQPHEPQVYVLPPAQEELSRNKVSVTCLIKSFHPPDIAVEWEITGQPEPENNYRTTPPQLDSDGTYFVYSKLSVDRSHWQRGNTYTCSVSHEALHSHHTQKSLTQSPGK | pKd | 6.89 |

-- ask Entry under review: anti-NGF feline IgG1a, Fc variant S434Y, S254K (antibody, part only; not given: anti-NGF variable domains, light chain, not shown: another chain or arm of the molecule; small tags and cut ends) Fc: PPEMLGGPSIFIFPPKPKDTLSIKRTPEVTCLVVDLGPDDSDVQITWFVDNTQVYTAKTSPREEQFNSTYRVVSVLPILHQDWLKGKEFKCKVNSKSLPSPIERTISKAKGQPHEPQVYVLPPAQEELSRNKVSVTCLIKSFHPPDIAVEWEITGQPEPENNYRTTPPQLDSDGTYFVYSKLSVDRSHWQRGNTYTCSVSHEALHYHHTQKSLTQSPGK . Reported pKd?
-- reply 8.51

-- ask Entry under review: anti-NGF feline IgG1a, Fc variant S290Y (antibody, part only; not given: anti-NGF variable domains, not shown: another chain or arm of the molecule; small tags and cut ends) Fc: PPEMLGGPSIFIFPPKPKDTLSISRTPEVTCLVVDLGPDDSDVQITWFVDNTQVYTAKTYPREEQFNSTYRVVSVLPILHQDWLKGKEFKCKVNSKSLPSPIERTISKAKGQPHEPQVYVLPPAQEELSRNKVSVTCLIKSFHPPDIAVEWEITGQPEPENNYRTTPPQLDSDGTYFVYSKLSVDRSHWQRGNTYTCSVSHEALHSHHTQKSLTQSPGK . Reported pKd?
-- reply 6.89

-- ask Entry under review: anti-NGF feline IgG1a, Fc variant Q311V (antibody, part only; not given: anti-NGF variable domains, light chain, not shown: another chain or arm of the molecule; small tags and cut ends) Fc: PPEMLGGPSIFIFPPKPKDTLSISRTPEVTCLVVDLGPDDSDVQITWFVDNTQVYTAKTSPREEQFNSTYRVVSVLPILHVDWLKGKEFKCKVNSKSLPSPIERTISKAKGQPHEPQVYVLPPAQEELSRNKVSVTCLIKSFHPPDIAVEWEITGQPEPENNYRTTPPQLDSDGTYFVYSKLSVDRSHWQRGNTYTCSVSHEALHSHHTQKSLTQSPGK . Reported pKd?
-- reply 7.09

-- ask Entry under review: anti-NGF feline IgG1a, Fc variant I377Y (antibody, part only; not given: anti-NGF variable domains, not shown: another chain or arm of the molecule; small tags and cut ends) Fc: PPEMLGGPSIFIFPPKPKDTLSISRTPEVTCLVVDLGPDDSDVQITWFVDNTQVYTAKTSPREEQFNSTYRVVSVLPILHQDWLKGKEFKCKVNSKSLPSPIERTISKAKGQPHEPQVYVLPPAQEELSRNKVSVTCLIKSFHPPDYAVEWEITGQPEPENNYRTTPPQLDSDGTYFVYSKLSVDRSHWQRGNTYTCSVSHEALHSHHTQKSLTQSPGK . Reported pKd?
-- reply 7.21
